B1: Unconventional myosin-Ie, residues 1051 to 1108; numbered along this chain, Q12965 (parent)
chain: PQVPQCKALYAYDAQDTDELSFNANDIIDIIKEDPSGWWTGRLRGKQGLFPNNYVTKI

- Variants of: B1
- assayMethodText: abundance fitness (aPCA) (normalised: wild type 0, dead -1); higher = more abundant; growth selection in yeast, the domain comes from the species named
- experimentalParameters: Homo sapiens
recordedMetric: abundance fitness

mutantDesignation: Y12R
assayResult: -0.107
--
mutantDesignation: A11Q
assayResult: 0.045
--
mutantDesignation: A14V
assayResult: -0.871
--
mutantDesignation: L49D
assayResult: -0.319
--
mutantDesignation: N25Q
assayResult: -0.058
--
mutantDesignation: P51H
assayResult: -0.264
--
mutantDesignation: I28L
assayResult: 0.237
--
mutantDesignation: D13E
assayResult: -0.067
--
mutantDesignation: I31Q
assayResult: -0.48
--
mutantDesignation: A14R
assayResult: -0.377
--
mutantDesignation: L49G
assayResult: -0.16

Cited source for all entries: the Human Domainome abundance scans (Beltran et al. 2025)
